System: HOP-62 NSCLC
Assay text: NCI tumour cell line growth inhibition, 48 h
Measured endpoint: GI50

Examples with answers:
Molecule: CCOC(=O)c1c(C)n(Cc2ccc(Cl)cc2Cl)c2c1cc1oc(=O)c(=O)n3c(Cc4ccccc4)nc2c13
Assayed target: HOP-62 NSCLC
Result: 5.37 µM
//
Molecule: COC(=O)[C@@H]1CCCN1C(=O)[C@@H]1CCCN1C(=O)[C@@H](Cc1c[nH]c2ccccc12)NC(=S)Nc1cc(C(F)(F)F)cc(C(F)(F)F)c1
Assayed target: HOP-62 NSCLC
Result: 8.35 µM
//
Molecule: CN(C)c1ccc(N=Nc2c([O-])ccc3ccccc23)cc1.[C-]#[O+].[C-]#[O+].[Ir]
Assayed target: HOP-62 NSCLC
Result: > 100 µM

Measured GI50 of CCOC(=O)c1cnn(-c2ccnc3c(C(F)(F)F)cccc23)c1N : > 100 µM

Per the records, this molecule ( CC[CH2][Pb]([CH2]CC)([CH2]CC)[NH]S(=O)(=O)c1ccc(C)cc1 ) has GI50 equal to 0.0909 µM

response.value for O=c1[nH]cnc2c(C3OC(CO)C(O)C3O)scc12 (stereo unspecified) (field: GI50) = 46.9 µM

----------
Tested on: CAKI-1 renal
Assay text: NCI tumour cell line growth inhibition, 48 h
Measured endpoint: GI50

These solved cases illustrate the format of a correct answer.
Molecule: Nc1nc(OCc2ccccc2)nc2[nH]ncc12
GI50: 11.1 µM

Molecule: COc1cc(/C=C(/c2ccccc2)[N+](=O)[O-])c(OC)c2c1OCO2
GI50: 1.76 µM

Molecule: CC(=O)OC1C2(CC3N4C(=O)C5(CO)SSC4(CC31O)C(=O)N5C)OC(C)C(C)(C)C2=O (stereo not given)
GI50: 1.88 µM

Molecule: Cc1c(C)c2ccc(OC/C=C3\CCC(=O)O3)cc2oc1=O
GI50: 15.3 µM

// GI50 value for CN(C)c1ccc(N=Nc2c([O-])ccc3ccccc23)cc1.[C-]#[O+].[C-]#[O+].[Ir] : 16.2 µM

----------
# TGI listing for each entry below
Tested on: SF-295 CNS
Assay text: NCI tumour cell line growth inhibition, 48 h
Expressed in µM, but write only the number.

Compound: CC1CC[C@@]2(OC1)OC1C[C@H]3[C@@H]4CC[C@H]5CC(OC6OC(CO)C(OC7OC(CO)C(O)C(O)C7O)C(O)C6O)CCC5(C)[C@H]4CCC3(C)C1[C@@H]2C (stereo partly specified)
TGI / µM: 16.4
//
Compound: Nc1nc(Nc2cccc(F)c2)nc2ccccc12
TGI / µM: 42.7
//
Compound: Cc1c2ccncc2c(C)c2c1[nH]c1ccc(OC(C)(C)C)cc12
TGI / µM: 4.87
//
Compound: C=C(C)[C@@H]1CC[C@@]2(C)[C@H]1[C@H]1CCC3[C@@]4(C)CC[C@H](O)C(C)(C)[C@@H]4CC[C@@]3(C)[C@]1(C)C[C@@H]2O (stereo partly specified)
TGI / µM: 80.6

Let's switch to this compound now.
TGI for COC(=O)[C@@]12OC[C@]34C([C@@H](O)C1O)[C@@]1(C)CC(=O)C(O)=C(C)C1C[C@H]3OC(=O)[C@H](OC(=O)CC(C)C(F)(F)F)[C@H]42 (stereo partly specified) is 0.191

----------
Tested on: A549 NSCLC
Assay text: NCI tumour cell line growth inhibition, 48 h
Measured endpoint: TGI

Example molecules with recorded TGI:
Molecule: CC(C)=CCC/C(C)=C/Cc1c(O)ccc2c1[nH]c1cc(O)c(C)cc12
Measured endpoint: TGI
Result: > 25 µM

Molecule: COc1ccc2c(C(=O)O)cc3cc(OC)c(OC)cc3c2c1
Measured endpoint: TGI
Result: > 100 µM

Molecule: CCOC(=O)COc1ccc(/C=C/C(=O)c2ccc(OC)cc2)cc1
Measured endpoint: TGI
Result: > 100 µM

Molecule: CC(C)N1CSC(=S)N(Cc2ccccc2)C1
Measured endpoint: TGI
Result: > 10 µM

Molecule: O=C1CCC2(c3ccccc3)Nc3cc(Cl)ccc3N12 (configuration not stated)
Measured endpoint: TGI
Result: > 100 µM

Value of measured TGI for the entry Clc1ccc(CN2COc3c(cc(Cl)c4cccnc34)C2)cc1 : 6.12 µM

The molecule identified as NC1CNC(=O)c2cscc21 (configuration not stated) registered its TGI at > 100 µM

The reported TGI of the molecule CN(C)c1ccc(C(N)=O)cn1 was > 100 µM

----------
Here, each record is paired with measured TGI data.
System: SNB-75 CNS
Assay text: NCI tumour cell line growth inhibition, 48 h

These recorded examples may help you get a feel for the data.
Structure: CC(=O)c1cccc(NCn2nnc3ccccc32)c1
TGI: > 100 µM
//
Structure: Fc1ccc(Nc2nccc(-c3c(-c4ccc(C(F)(F)F)cc4)nn4ncccc34)n2)cc1F
TGI: > 25 µM
//
Structure: Cn1c(COC(=O)NC2CCCCC2)c(COC(=O)NC2CCCCC2)c2ccc3cc(Cl)c(Cl)cc3c21
TGI: 27.8 µM

Reported TGI for Cc1c2cnccc2nc2[nH]c3ccncc3c12 was > 100 µM

Record COc1cc2c(c(OC)c1OC)C(=O)[C@H]1OC(=O)N[C@@H]21 , field TGI: > 100 µM

Sure, the documented TGI for CC(C)[C@@H](COC(C)(C)C)N=CN1CCc2c([nH]c3ccccc23)C1 is > 100 µM

----------
Readings of TGI for the listed molecules
Test system: HOP-92 NSCLC
Assay text: NCI tumour cell line growth inhibition, 48 h

Past entries and their recorded results:
Molecule: CC1CC2(CC[C@@H]1O)OCCO2 (stereo not given in full)
Result: > 100 µM
//
Molecule: CCOC(=O)CN1CCSC1=NC#N
Result: > 100 µM
//
Molecule: COc1cnc2c(c1)C(=O)c1c-2n(CCCN2CCCC2)c(=O)c2cc(Cl)ccc12
Result: 12.1 µM
//
Molecule: O=c1[nH]cnc2c(C3OC(CO)C(O)C3O)scc12 (stereo not given)
Result: > 100 µM

From here, focus on the item given below.
So for C=C(C)[C@@H]1CC[C@@]2(C)[C@H]1[C@H]1CCC3[C@@]4(C)CC[C@H](O)C(C)(C)[C@@H]4CC[C@@]3(C)[C@]1(C)C[C@@H]2O (stereo not given in full) , the logged TGI turned out to be > 100 µM

----------
Let's look at some compounds and their measured TGI.
Tested on: MCF7 breast
Assay text: NCI tumour cell line growth inhibition, 48 h

Would you please look over these solved cases?
Compound: CC1CC[C@@]2(OC1)OC1C[C@H]3[C@@H]4CC[C@H]5CC(OC6OC(CO)C(OC7OC(CO)C(O)C(O)C7O)C(O)C6O)CCC5(C)[C@H]4CCC3(C)C1[C@@H]2C (stereo partly specified)
TGI: 15 µM
//
Compound: CC(C)(Br)C(=O)/C=C/c1ccccc1
TGI: 15.3 µM
//
Compound: O=C(O)c1cc2c(s1)C(=O)c1sccc1C2=O
TGI: 7.91 µM
//
Compound: CS(=O)(=O)Nc1cc(-c2ccc3ncnc(Nc4ccc5c(cnn5Cc5ccc(F)cc5)c4)c3c2)cnc1Cl
TGI: 10.2 µM
//
Compound: O=C(Nc1ccc2c(c1)oc(=O)c1ccccc12)C(Cl)Cl
TGI: > 100 µM

Known value: MCF7 breast TGI of the compound c1ccc2c(c1)CCN2CCc1c[nH]c2ccccc12 equals > 10 µM

Summary: CCCCC[C@H]1C/C=C2/C(=O)C(Cl)=C[C@@H]2C/C=C\CCCC(=O)O[C@@H](CCCCC)C/C=C2/C(=O)C(Cl)=C[C@@H]2C/C=C\CCCC(=O)O1 , MCF7 breast, TGI = 1.93 µM

----------
Recorded GI50, one value per entry.
System: OVCAR-8 ovarian
Assay text: NCI tumour cell line growth inhibition, 48 h

Recorded GI50, per entry:
Molecule: CCCCC[C@H]1C/C=C2/C(=O)C(Cl)=C[C@@H]2C/C=C\CCCC(=O)O[C@@H](CCCCC)C/C=C2/C(=O)C(Cl)=C[C@@H]2C/C=C\CCCC(=O)O1
Result: 0.38 µM
//
Molecule: O=C(NN1C(=O)CSC1c1ccc(Cl)cc1)c1[nH]c2ccc(F)cc2c1-c1ccccc1 (centres undefined)
Result: 4.34 µM
//
Molecule: S=c1ssc(Sc2ccccn2)c1Cl
Result: 20.3 µM
//
Molecule: N#CC1C(N)=NNC12Nc1ccccc1N2 (centres undefined)
Result: 0.2 µM
//
Molecule: Cc1ccc2c(c1)ncn2-c1ncnc2c1CC(C)c1ccccc1N2C (centres undefined)
Result: 0.381 µM

The reported OVCAR-8 ovarian GI50 of CCc1c2c(nc3cccc(N)c13)-c1cc3c(c(=O)n1C2)COC(=O)[C@]3(O)CC is 0.00224 µM

Lab note: molecule CCCCCCCCCCCCC(=O)[O-].CCCCCCCCCCCCC(=O)[O-].CCCCCCCCCCCCC(=O)[O-].CCCCCCCCCCCCC(=O)[O-].[Mo+2].[Mo+2] tested on OVCAR-8 ovarian; recorded GI50 was 11.9 µM

With OVCAR-8 ovarian as the test system, CCOC(=O)c1c(C)n(Cc2ccc(Cl)cc2Cl)c2c1cc1oc(=O)c(=O)n3c(Cc4ccccc4)nc2c13 showed GI50 of 5.22 µM

Bench note, OVCAR-8 ovarian: entry CN(C)c1ccc(N=Nc2c([O-])ccc3ccccc23)cc1.[C-]#[O+].[C-]#[O+].[Ir] , its GI50 = 25 µM
